Where do these numbers come from? They come from BindingDB's records for patent WO2025049746.

Catalogue of IC50 readings, one per entry.
assayed.target: Bifunctional 3'-5' exonuclease/ATP-dependent helicase WRN (Homo sapiens)
assay.name: ADP-Glo Kinase Assay
property: IC50 (nM)

smiles.entry | measurement.unit | qualifier | value.observed
CCc1c(N2CCN(C(=O)c3ncnc(C)c3O)CC2)c(=O)n2nc(N3CCC3)nc2n1CC(=O)Nc1ccc(C(F)(F)F)cc1Cl | nM | = | 90.9
CCc1c(N2CCN(C(=O)c3ncnc(C)c3O)CC2)c(=O)n2nc(-c3ccc4c(c3)CCOC4)nc2n1CC(=O)Nc1ccc(OC(F)(F)Cl)cc1 | nM | = | 43
CCc1c(N2CCN(C(=O)c3ncnc(C)c3O)CC2)c(=O)n2nc(-c3cc(F)c4nn(C)cc4c3)nc2n1CC(=O)Nc1ccc(C(F)(F)F)cc1Cl | nM | = | 28
Cc1ncnc(C(=O)N2CCN(c3c4n(c5nc(-c6ccc7c(c6)COC7(C)C)nn5c3=O)[C@@H](C(=O)Nc3ccc(C(F)(F)F)cc3Cl)C[C@@H]4C)[C@H]3CC[C@@H]32)c1O | nM | > | 29700
CCc1c(N2CCN(C(=O)C(F)(F)CO)CC2)c(=O)n2nc(C3=CCOCC3)nc2n1CC(=O)Nc1ccc(C(F)(F)F)cc1Cl | nM | = | 737

----------
assayed.target: Bifunctional 3'-5' exonuclease/ATP-dependent helicase WRN [480-1251] (UniProt Q14191)
Construct: 480-1251
Sequence (Q14191 480-1251): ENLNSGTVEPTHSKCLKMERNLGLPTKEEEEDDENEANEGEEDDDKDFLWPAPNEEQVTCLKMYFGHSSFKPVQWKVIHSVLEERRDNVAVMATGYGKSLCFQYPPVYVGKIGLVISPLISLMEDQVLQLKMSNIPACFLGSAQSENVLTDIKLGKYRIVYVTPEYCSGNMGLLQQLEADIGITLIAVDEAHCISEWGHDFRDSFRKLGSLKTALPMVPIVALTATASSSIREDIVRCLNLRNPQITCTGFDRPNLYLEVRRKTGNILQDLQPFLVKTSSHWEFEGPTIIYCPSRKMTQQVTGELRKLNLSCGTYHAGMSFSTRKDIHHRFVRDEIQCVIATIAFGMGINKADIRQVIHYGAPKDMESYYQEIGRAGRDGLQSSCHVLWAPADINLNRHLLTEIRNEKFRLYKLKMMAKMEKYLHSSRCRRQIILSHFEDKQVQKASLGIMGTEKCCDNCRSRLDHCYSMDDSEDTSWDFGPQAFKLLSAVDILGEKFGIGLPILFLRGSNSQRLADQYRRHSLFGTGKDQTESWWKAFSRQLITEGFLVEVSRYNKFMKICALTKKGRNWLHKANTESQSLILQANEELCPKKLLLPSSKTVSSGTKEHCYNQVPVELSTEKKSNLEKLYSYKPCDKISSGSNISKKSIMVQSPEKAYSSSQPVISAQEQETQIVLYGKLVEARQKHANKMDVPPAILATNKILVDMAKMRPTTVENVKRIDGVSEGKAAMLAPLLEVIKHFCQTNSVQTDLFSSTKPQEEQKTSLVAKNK
assay.name: Biochemical Activity Assays
Method: The pure fractions were pooled and desalted/buffer exchanged into storage buffer using a HiTrap desalting column. […] First, WRN alone was pre-incubated with DMSO or compound of interest for 15 minutes. To initiate the reaction, ATP, dsDNA substrate, and ssDNA competitor (ssDNA_comp: […]) were added and incubated at room temperature for 20 minutes at which point DNA unwinding activity was monitored by measuring Cy3 fluorescence. […]
Catalogue of log10 of IC50 readings, one per entry.
property: log10 of IC50 (log10 of the value in nM)

molecule | value.observed
CCc1c(N2CCN(C(=O)c3ncnc(C)c3O)CC2)c(=O)n2nc(-c3ccc4nn(C)c(F)c4c3)nc2n1CC(=O)Nc1ccc(C(F)(F)F)cc1Cl [WO2025049746, Example 290] | 1.49
CCc1c(N2CCN(C(=O)c3ncnc(C)c3O)CC2)c(=O)n2nc(-c3ccc4c(c3)CCO4)nc2n1CC(=O)Nc1ccc(SC(F)(F)F)cc1Cl [WO2025049746, Example 410] | 1.51
CCc1c(N2CCN(C(=O)c3csc4cncnc34)CC2)c(=O)n2nc(C3=CCOCC3)nc2n1CC(=O)Nc1ccc(C(F)(F)F)cc1Cl [WO2025049746, Example 43] | 1.62
CCc1c(N2CCN(C(=O)c3ncnc(C)c3O)CC2)c(=O)n2nc(-c3ccc4c(c3)OCO4)nc2n1CC(=O)Nc1c(Cl)cc(C(F)(F)F)c2c1CC2 [WO2025049746, Example 380] | 1.64
CCc1c(N2CCN(C(=O)c3ncnc(C)c3O)CC2)c(=O)n2nc(C3=CCOCC3)nc2n1CC(=O)NC12CC(c3ccc(F)cc3)(C1)C2 [WO2025049746, Example 353] | 4.47
CCc1c(N2CCN(C(=O)c3nccc(C)c3N)CC2)c(=O)n2nc(C3=CCOCC3)nc2n1CC(=O)Nc1ccc(C(F)(F)F)cc1Cl [WO2025049746, Example 36] | 1.58
CCc1c(N2CCN(C(=O)c3ncnc(C)c3O)CC2)c(=O)n2nc(C3=CCOCC3)nc2n1CC(=O)NC12CCC(C(F)(F)F)(CC1)C2 [WO2025049746, Example 362] | 2.79
CCc1c(N2CCN(C(=O)c3cncc4cc[nH]c34)CC2)c(=O)n2nc(C3=CCOCC3)nc2n1CC(=O)Nc1ccc(C(F)(F)F)cc1Cl [WO2025049746, Example 47] | 1.38
CCc1c(N2CCN(C(=O)c3ncnc(C)c3O)CC2)c(=O)n2nc(-c3ccc4nonc4c3)nc2n1CC(=O)Nc1ccc(C(F)(F)F)cc1Cl [WO2025049746, Example 234] | 1.88
CCc1c(N2CCN(C(=O)c3ccccc3NS(=O)(=O)C3CC3)CC2)c(=O)n2nc(N3C[C@H]4COC[C@H]4C3)nc2n1CC(=O)Nc1ccc(C(F)(F)F)c2c1CC2 [WO2025049746, Example 112] | 1.66
CCc1c(N2CCN(C(=O)c3ccccc3NS(=O)(=O)C3CC3)CC2)c(=O)n2nc(-c3ccc4c(c3)CCOC4)nc2n1CC(=O)Nc1ccc(C(F)(F)F)c2c1CC2 [WO2025049746, Example 110] | 2.57

----------
Catalogue of pIC50 readings, one per entry.
assayed.target: Bifunctional 3'-5' exonuclease/ATP-dependent helicase WRN (Homo sapiens)
assay.name: ADP-Glo Kinase Assay
pIC50: −log10 of the molar value.

molecule | assayed.target | pIC50
CCc1c(N2CCN(C(=O)c3ncnc(C)c3O)CC2)c(=O)n2nc(-c3ccc4scnc4c3)nc2n1CC(=O)Nc1ccc(C(F)(F)F)cc1Cl | Bifunctional 3'-5' exonuclease/ATP-dependent helicase WRN (Homo sapiens) | 7.40
CCc1c(N2CCN(C(=O)c3nc4n(c(=O)c3O)CCOC4)CC2)c(=O)n2nc(N3C[C@H]4COC[C@H]4C3)nc2n1CC(=O)Nc1ccc(C(F)(F)F)cc1Cl | Bifunctional 3'-5' exonuclease/ATP-dependent helicase WRN (Homo sapiens) | 6.42
CCc1c(N2CCN(C(=O)c3ccccc3NC(=O)c3ccn[nH]3)CC2)c(=O)n2nc(C3=CCOCC3)nc2n1CC(=O)Nc1ccc(C(F)(F)F)cc1Cl | Bifunctional 3'-5' exonuclease/ATP-dependent helicase WRN (Homo sapiens) | 6.90
CCc1c(N2CCN(C(=O)c3ncnc(C)c3O)CC2)c(=O)n2nc(-c3ccc4c(c3)COC4)nc2n1CC(=O)Nc1c(Cl)cc(C(F)(F)F)c2ccoc12 | Bifunctional 3'-5' exonuclease/ATP-dependent helicase WRN (Homo sapiens) | 7.42
CCc1c(N2CCN(C(=O)c3nocc3O)CC2)c(=O)n2nc(-c3ccc4c(c3)COC4)nc2n1CC(=O)Nc1ccc(C(F)(F)F)cc1Cl [WO2025049746, Example 439] | Bifunctional 3'-5' exonuclease/ATP-dependent helicase WRN (Homo sapiens) | 7.30
CCc1c(N2CCN(C(=O)c3ncnc(C)c3O)CC2)c(=O)n2nc(-c3ccc(NS(N)(=O)=O)cc3)nc2n1CC(=O)Nc1ccc(C(F)(F)F)cc1Cl | Bifunctional 3'-5' exonuclease/ATP-dependent helicase WRN (Homo sapiens) | 7.68
CCc1c(N2CCN(C(=O)c3ncnc(C)c3O)CC2)c(=O)n2nc(N(C)C)nc2n1CC(=O)Nc1ccc(C(F)(F)F)c2c1CC2 | Bifunctional 3'-5' exonuclease/ATP-dependent helicase WRN (Homo sapiens) | 7.57
CCc1c(N2CCN(C(=O)c3ncnc(C)c3O)CC2)c(=O)n2nc(-c3cccc4c3OC(F)(F)O4)nc2n1CC(=O)Nc1ccc(C(F)(F)F)cc1Cl | Bifunctional 3'-5' exonuclease/ATP-dependent helicase WRN (Homo sapiens) | 7.11
CCc1c(N2CCN(C(C)=O)CC2)c(=O)n2nc(N(C)C)nc2n1CC(=O)Nc1ccc(C(F)(F)F)cc1Cl | Bifunctional 3'-5' exonuclease/ATP-dependent helicase WRN (Homo sapiens) | 6.27
CCc1c(N2CCN(C(=O)c3ncnc(C)c3O)CC2)c(=O)n2nc(-c3cnc4[nH]cc(Cl)c4c3)nc2n1CC(=O)Nc1ccc(C(F)(F)F)cc1Cl | Bifunctional 3'-5' exonuclease/ATP-dependent helicase WRN (Homo sapiens) | 7.38
CCc1c(N2CCN(C(=O)c3ncnc(C)c3O)CC2)c(=O)n2c(CO)c(-c3ccc4c(c3)COC4)nc2n1CC(=O)Nc1ccc(C(F)(F)F)cc1Cl | Bifunctional 3'-5' exonuclease/ATP-dependent helicase WRN (Homo sapiens) | 5.01

----------
assayed.target: Bifunctional 3'-5' exonuclease/ATP-dependent helicase WRN (Homo sapiens)
assay.name: ADP-Glo Kinase Assay
property: IC50 (nM)

smiles.entry | value.observed
CCc1c(N2CCN(C(=O)c3ncnc(C)c3O)CC2)c(=O)n2nc(-c3cccc4c3OCO4)nc2n1CC(=O)Nc1c(Cl)cc(C(F)(F)F)c2c1CC2 | 96
CCc1c(N2CCN(C(=O)c3ncnc(C)c3O)CC2)c(=O)n2nc(-c3cc4c(cc3F)[C@H](OC)CC4)nc2n1CC(=O)Nc1ccc(C(F)(F)F)cc1Cl | 26
CCc1c(N2CCN(C(=O)C3=CCOCC3)CC2)c(=O)n2nc(-c3ccnc(O)n3)nc2n1CC(=O)Nc1ccc(C(F)(F)F)cc1Cl | 550

----------
assayed.target: Bifunctional 3'-5' exonuclease/ATP-dependent helicase WRN (Homo sapiens, UniProt Q14191)
Sequence (Q14191 whole entry): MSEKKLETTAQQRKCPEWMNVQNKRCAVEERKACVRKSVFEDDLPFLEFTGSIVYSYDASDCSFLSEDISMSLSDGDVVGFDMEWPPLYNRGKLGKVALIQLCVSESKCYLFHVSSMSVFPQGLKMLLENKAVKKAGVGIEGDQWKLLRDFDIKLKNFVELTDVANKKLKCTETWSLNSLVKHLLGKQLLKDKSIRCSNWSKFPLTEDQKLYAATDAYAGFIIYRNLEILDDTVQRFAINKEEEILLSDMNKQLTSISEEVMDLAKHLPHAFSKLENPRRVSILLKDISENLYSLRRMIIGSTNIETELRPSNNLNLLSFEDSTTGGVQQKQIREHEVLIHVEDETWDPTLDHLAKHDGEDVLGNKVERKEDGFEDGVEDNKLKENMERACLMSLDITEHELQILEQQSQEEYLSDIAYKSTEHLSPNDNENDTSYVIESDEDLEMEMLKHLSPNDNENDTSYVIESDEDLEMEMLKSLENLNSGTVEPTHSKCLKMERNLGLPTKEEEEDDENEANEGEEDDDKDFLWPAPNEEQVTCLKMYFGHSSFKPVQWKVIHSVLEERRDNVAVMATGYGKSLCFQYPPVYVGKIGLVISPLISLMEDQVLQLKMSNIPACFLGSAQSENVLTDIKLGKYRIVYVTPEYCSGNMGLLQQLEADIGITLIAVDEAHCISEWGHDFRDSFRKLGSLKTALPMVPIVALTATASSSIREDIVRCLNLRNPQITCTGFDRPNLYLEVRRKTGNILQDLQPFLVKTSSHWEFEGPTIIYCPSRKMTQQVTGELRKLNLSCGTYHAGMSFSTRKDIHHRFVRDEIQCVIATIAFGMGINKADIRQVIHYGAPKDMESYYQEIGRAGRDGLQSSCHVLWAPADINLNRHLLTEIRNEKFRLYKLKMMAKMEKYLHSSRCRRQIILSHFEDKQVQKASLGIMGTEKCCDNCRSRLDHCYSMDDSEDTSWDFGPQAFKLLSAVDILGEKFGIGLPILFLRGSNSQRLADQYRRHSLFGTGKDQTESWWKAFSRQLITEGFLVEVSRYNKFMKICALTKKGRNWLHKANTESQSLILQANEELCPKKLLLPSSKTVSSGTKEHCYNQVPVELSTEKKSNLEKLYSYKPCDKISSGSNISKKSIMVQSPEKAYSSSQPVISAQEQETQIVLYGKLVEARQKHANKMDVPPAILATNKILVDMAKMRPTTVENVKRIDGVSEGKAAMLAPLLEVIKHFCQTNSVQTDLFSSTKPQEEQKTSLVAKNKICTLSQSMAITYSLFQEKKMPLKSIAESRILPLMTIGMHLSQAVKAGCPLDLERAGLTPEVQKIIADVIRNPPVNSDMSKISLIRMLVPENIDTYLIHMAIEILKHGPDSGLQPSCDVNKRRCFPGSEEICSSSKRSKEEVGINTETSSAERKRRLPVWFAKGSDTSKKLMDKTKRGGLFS
assay.name: ADP-Glo Kinase Assay
pIC50: −log10 of the molar value.
Catalogue of pIC50 readings, one per entry.
property: pIC50

compound | property | value.observed
CCc1c(N2CCN(C(=O)c3ncnc(C)c3O)CC2)c(=O)n2nc(N(C)C)nc2n1CC(=O)Nc1ccc(C(F)(F)F)cc1Cl | pIC50 | 7.28
CCc1c(N2CCN(C(=O)c3ncnc(C)c3O)CC2)c(=O)n2nc(-c3cccc4c3OCO4)nc2n1CC(=O)Nc1ccc(C(F)(F)F)cc1Cl | pIC50 | 7.60
CCc1c(N2CCN(C(=O)c3ncnc(C)c3O)CC2)c(=O)n2nc(-c3ccc4c(c3)OCCO4)nc2n1CC(=O)Nc1ccc(C(F)(F)F)cc1Cl | pIC50 | 7.63
CCc1c(N2CCN(C(=O)c3ncnc(C)c3O)CC2)c(=O)n2nc(-c3ccc4c(c3)COC4)nc2n1CC(=O)Nc1c(Cl)cc(C(F)(F)F)c2c1CC2 | pIC50 | 7.46
CCc1c(N2CCN(C(=O)c3cc(C(C)C)c(O)cc3O)CC2)c(=O)n2nc(-c3ccc4c(c3)COC4)nc2n1CC(=O)Nc1ccc(C(F)(F)F)cc1Cl | pIC50 | 5.90
CCc1c(N2CCN(C(=O)c3ncnc(C)c3O)CC2)c(=O)n2nc(-c3ccc4c(c3)COC43COC3)nc2n1CC(=O)Nc1ccc(C(F)(F)F)cc1Cl | pIC50 | 7.51
CCc1c(N2CCN(C(=O)c3ncnc(C)c3O)CC2)c(=O)n2nc(-c3cnc4c(c3)COC4)nc2n1CC(=O)Nc1ccc(C(F)(F)F)cc1Cl | pIC50 | 7.41
CCc1c(N2CCN(C(=O)c3ncnc(C)c3O)CC2)c(=O)n2nc(-c3ccc4occc4c3)nc2n1CC(=O)Nc1ccc(C(F)(F)F)cc1Cl | pIC50 | 7.48
CCc1c(N2CCN(C(=O)c3ncnc(C)c3O)CC2)c(=O)n2nc(C3C4COCC43)nc2n1CC(=O)Nc1ccc(C(F)(F)F)c2c1CC2 (stereo unspecified) | pIC50 | 5.53
CCc1c(N2CCN(C(=O)c3nccc4nc[nH]c34)CC2)c(=O)n2nc(N(C)C)nc2n1CC(=O)Nc1ccc(C(F)(F)F)c2c1CC2 | pIC50 | 7.66
CCc1c(N2CCN(C(=O)c3ncccc3N)CC2)c(=O)n2nc(C3=CCOCC3)nc2n1CC(=O)Nc1ccc(C(F)(F)F)cc1Cl | pIC50 | 7.35
CCc1c(N2CCN(C(=O)c3ncnc(C)c3O)CC2)c(=O)n2nc(-c3ccc4c(c3)COC4)nc2n1CC(=O)Nc1ccc(C2(C(F)(F)F)CC2)cc1Cl | pIC50 | 7.00
CCc1c(N2CCN(C(=O)c3cn(C)nc3O)CC2)c(=O)n2nc(N(C)C)nc2n1CC(=O)Nc1ccc(C(F)(F)F)cc1Cl | pIC50 | 7.19
CCc1c(N2CCN(C(=O)c3ncnc(C)c3O)CC2)c(=O)n2nc(-c3ccc4nonc4c3)nc2n1CC(=O)Nc1ccc(C(F)(F)F)cc1Cl | pIC50 | 7.17
CCc1c(N2CCN(C(=O)c3ncnc(C)c3O)CC2)c(=O)n2nc(-c3ccc4nc(C)sc4c3)nc2n1CC(=O)Nc1ccc(C(F)(F)F)cc1Cl | pIC50 | 7.59
CCc1c(N2CCN(C(=O)c3cc(N4CCN(C)CC4)nc(C)c3O)CC2)c(=O)n2nc(-c3ccc4c(c3)COC4)nc2n1CC(=O)Nc1ccc(C(F)(F)F)cc1Cl | pIC50 | 6.97
CCc1c(N2CCN(C(=O)c3ncnc(C)c3O)CC2)c(=O)n2nc(-c3ccc4c(c3)CCO[C@H]4C)nc2n1CC(=O)Nc1ccc(C(F)(F)F)cc1Cl | pIC50 | 7.57
CCc1c(N2CCN(C(=O)c3ncnc(C)c3O)CC2)c(=O)n2nc(-c3ccc4ncn(C)c4c3)nc2n1CC(=O)Nc1ccc(C(F)(F)F)cc1Cl | pIC50 | 7.60
CCc1c(N2CCN(C(=O)c3ncnc(C)c3O)CC2)c(=O)n2nc(-c3ccc4c(c3)[C@@H](C)OC4)nc2n1CC(=O)Nc1ccc(C(F)(F)F)cc1Cl | pIC50 | 7.42
CCc1c(N2CCN(C(=O)c3ncnc(C)c3O)CC2)c(=O)n2nc(-c3cc4cn(C)nc4cc3F)nc2n1CC(=O)Nc1ccc(C(F)(F)F)cc1Cl | pIC50 | 7.64
CCc1c(N2CCCN(C(=O)c3ncnc(C)c3O)CC2)c(=O)n2nc(C3=CCOCC3)nc2n1CC(=O)Nc1ccc(C(F)(F)F)cc1Cl | pIC50 | 6.78
